Test system: P388 leukemia ip, CD2F1 mice, survival T/C
experiment_notes: NCI In Vivo Anticancer Drug Screen. Data for tumor model P388 Leukemia (intraperitoneal) in CD2F1 (CDF1) mice
assay_conditions: endpoint: median survival time; dose: 6.25 mg/kg/injection; schedule: Q01DX009 (ip); vehicle: saline; higher = longer survival
Toxic doses and inconclusive results are not listed.
attribute_measured: T/C

Recorded T/C, per entry:
| smiles_code | T/C |
| --- | --- |
| O=NN(CCCl)C(=O)Nc1ccc(Br)cc1 | 122 % of control |
| CSC(SC)=C1C(=O)NC(=O)NC1=O | 111 % of control |

Note: attention shifts to another entry.
Query: Find the recorded T/C belonging to `CCCCCCCCC[N+]1(CC)CCCC1` and report it.
Response: 117 % of control
